- protocol.summary: Absorption spectra obtained in toluene at room temperature
- Type: physicochemical
- assay.context: Table 3; redshift relative to the parent chlorin (ZnC or Zn—M^10); toluene
measured.metric: ΔνQy (cm⁻¹)

CC(C)[Si](C#Cc1cc2[n]3c1C=C1CC(C)(C)C(=N1)C=c1cc(C#C[Si](C(C)C)(C(C)C)C(C)C)c([n]1[Zn]3)=CC1=NC(=C2)C=C1)(C(C)C)C(C)C [ZnC-E^3E^13]	1080

P = CC(=O)c1cc2[n]3c1C=C1CC(C)(C)C(=N1)C=c1cc(C#C[Si](C(C)C)(C(C)C)C(C)C)c([n]1[Zn]3)=CC1=NC(=C2)C=C1 [ZnC-E^3A^13]
Q = CC(=O)c1cc2[n]3c1C=C1CC(C)(C)C(=N1)C=c1ccc([n]1[Zn]3)=CC1=NC(=C2c2c(C)cc(C)cc2C)C=C1 [ZnC-M^10A^13]
R = C=Cc1cc2[n]3c1C=C1C=CC(=N1)C(c1c(C)cc(C)cc1C)=c1ccc([n]1[Zn]3)=CC1=NC(=C2)C(C)(C)C1 [ZnC-V^3M^10]
-- ask Exam item: list the entries in increasing order of ΔνQy. Answer format: list of labels, ordered as asked.
-- reply R, Q, P

---

- protocol.summary: Absorption spectra obtained in toluene at room temperature
- Type: physicochemical
- assay.context: Table 1; in toluene at room temperature
measured.metric: B/Qy intensity ratio

CC(=O)c1cc2[n]3c1=CC1=NC(=Cc4ccc([n]4[Zn]3)C(c3ccc(C)cc3)=C3C=CC(=N3)C=2c2c(C)cc(C)cc2C)C(C)(C)C1	2.9
CC(=O)c1cc2[n-]c1cc1nc(cc3ccc([n-]3)c(-c3ccc(C)cc3)c3nc(c2-c2c(C)cc(C)cc2C)C=C3)C(C)(C)C1.[Cu+2]	3.1
Cc1ccc(-c2c3nc(c(-c4c(C)cc(C)cc4C)c4cc5c([nH]4)c(c4nc(cc6ccc2[nH]6)C(C)(C)C4)CC5=O)C=C3)cc1	2.5

I = CC(=O)c1cc2[nH]c1cc1nc(cc3ccc([nH]3)c(-c3ccc(C)cc3)c3nc(c2-c2c(C)cc(C)cc2C)C=C3)C(C)(C)C1
II = Cc1ccc(C2=c3ccc4[n]3[Zn][n]3c(cc(Br)c3C=C3CC(C)(C)C(=N3)C=4)C(c3c(C)cc(C)cc3C)=C3C=CC2=N3)cc1
-- ask // which entry has the larger B/Qy intensity ratio value, I or II ? Bench note: the answer is the label of the chosen record.
-- reply II
(II: 4.0, I: 2.3)

---

- protocol.summary: Absorption spectra obtained in toluene at room temperature
- Assay type: physicochemical
- assay.context: Table 1; in toluene at room temperature
measured.metric: λmax (nm), Qy

Cc1ccc(-c2c3nc(c(-c4c(C)cc(C)cc4C)c4cc5c([nH]4)c(c4nc(cc6ccc2[nH]6)C(C)(C)C4)CC5=O)C=C3)cc1 [compound 10]	660
Cc1ccc(C2=c3ccc4[n]3[Zn][n]3c(cc(Br)c3C=C3CC(C)(C)C(=N3)C=4)C(c3c(C)cc(C)cc3C)=C3C=CC2=N3)cc1 [Zn-6]	616
CC(=O)c1cc2[nH]c1cc1nc(cc3ccc([nH]3)c(-c3ccc(C)cc3)c3nc(c2-c2c(C)cc(C)cc2C)C=C3)C(C)(C)C1 [compound 8]	661
CC(=O)c1cc2[n]3c1=CC1=NC(=Cc4ccc([n]4[Zn]3)C(c3ccc(C)cc3)=C3C=CC(=N3)C=2c2c(C)cc(C)cc2C)C(C)(C)C1 [Zn-8]	635
CC(=O)c1cc2[n-]c1cc1nc(cc3ccc([n-]3)c(-c3ccc(C)cc3)c3nc(c2-c2c(C)cc(C)cc2C)C=C3)C(C)(C)C1.[Cu+2] [Cu-8]	631
